Hey, just so you know, these numbers are from patent US9364479B2.

system name: p70S6K (Homo sapiens, UniProt P23443)
Sequence (P23443 whole entry): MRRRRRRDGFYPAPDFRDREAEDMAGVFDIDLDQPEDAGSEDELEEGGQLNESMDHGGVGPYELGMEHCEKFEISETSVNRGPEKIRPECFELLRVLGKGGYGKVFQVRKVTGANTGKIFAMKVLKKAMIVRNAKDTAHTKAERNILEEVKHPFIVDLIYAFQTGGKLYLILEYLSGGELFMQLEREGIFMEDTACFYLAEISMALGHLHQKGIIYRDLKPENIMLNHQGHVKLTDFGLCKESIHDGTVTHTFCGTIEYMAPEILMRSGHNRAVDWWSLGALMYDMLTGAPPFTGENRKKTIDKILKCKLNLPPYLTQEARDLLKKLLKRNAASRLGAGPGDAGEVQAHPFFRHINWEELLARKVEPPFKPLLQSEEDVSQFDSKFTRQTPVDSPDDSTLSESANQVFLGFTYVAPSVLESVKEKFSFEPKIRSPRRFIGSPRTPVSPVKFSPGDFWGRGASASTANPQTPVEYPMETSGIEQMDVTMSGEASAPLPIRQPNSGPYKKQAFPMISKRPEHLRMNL
procedure summary: In vitro kinase inhibition screen
Type: biochemical
experimental setup: list in excess of 1 μM
recorded metric: IC50

Per the records, this molecule ( COc1cc2c(Nc3ccc(Cl)c(Cl)c3F)ncnc2cc1OC[C@@H]1C[C@@H]2CN(C)C[C@@H]2C1 ) has IC50 equal to > 1000 nM

###

system name: panel of pharmacological targets, including receptors, transporters, and enzymes
Construct: IC50 values; other: muscarinic receptors, α2-adrenergic receptor and dopamine transporter
procedure summary: NovaScreen panel, overall statements
experimental setup: muscarinic receptors, α2-adrenergic receptor and dopamine transporter
pIC50: −log10 of the molar value.
recorded metric: pIC50

Per the records, this compound ( COc1cc2c(Nc3ccc(Cl)c(Cl)c3F)ncnc2cc1OC[C@@H]1C[C@@H]2CN(C)C[C@@H]2C1 [XL-647] ) has pIC50 equal to 5.57 to 6.00

###

procedure summary: in vivo
experimental setup: male, monkey, po, 100 mg/kg
recorded metric: Cmax (ng/mL)
Quick note: give the figure in ng/mL, leave out the unit.

Per the records, this compound ( COc1cc2c(Nc3ccc(Cl)c(Cl)c3F)ncnc2cc1OC[C@@H]1C[C@@H]2CN(C)C[C@@H]2C1 [XL-647] ) has Cmax equal to 1220

###

procedure summary: in vivo
experimental setup: male, dog, po, 300 mg/kg
recorded metric: AUC(0-t) (ng·h/mL)
Quick note: give the figure in ng·h/mL, leave out the unit.

Per the records, this molecule ( COc1cc2c(Nc3ccc(Cl)c(Cl)c3F)ncnc2cc1OC[C@@H]1C[C@@H]2CN(C)C[C@@H]2C1 ) has AUC(0-t) equal to 7790

###

system name: Chk1 (Homo sapiens)
Sequence (O14757 whole entry): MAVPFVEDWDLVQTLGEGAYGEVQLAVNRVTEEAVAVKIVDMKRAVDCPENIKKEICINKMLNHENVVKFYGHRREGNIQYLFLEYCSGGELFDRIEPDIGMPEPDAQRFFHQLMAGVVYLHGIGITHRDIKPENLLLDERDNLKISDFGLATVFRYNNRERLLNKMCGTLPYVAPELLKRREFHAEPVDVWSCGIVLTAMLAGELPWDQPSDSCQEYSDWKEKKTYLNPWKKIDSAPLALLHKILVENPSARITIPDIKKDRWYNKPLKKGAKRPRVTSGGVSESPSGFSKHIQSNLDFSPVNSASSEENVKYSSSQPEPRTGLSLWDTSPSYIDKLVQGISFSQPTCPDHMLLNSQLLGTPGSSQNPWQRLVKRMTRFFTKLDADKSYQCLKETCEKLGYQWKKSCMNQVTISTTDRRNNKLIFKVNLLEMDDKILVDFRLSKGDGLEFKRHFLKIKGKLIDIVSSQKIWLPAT
recorded metric: IC50

Per the records, this molecule ( COc1cc2c(Nc3ccc(Cl)c(Cl)c3F)ncnc2cc1OC[C@@H]1C[C@@H]2CN(C)C[C@@H]2C1 [XL-647] ) has IC50 equal to > 10 µM

###

system name: EGFR (Homo sapiens, UniProt P00533)
Construct: residues H672-A1210 of human EGFR, Proqinase; purchased Proqinase
Sequence (P00533 672-1210): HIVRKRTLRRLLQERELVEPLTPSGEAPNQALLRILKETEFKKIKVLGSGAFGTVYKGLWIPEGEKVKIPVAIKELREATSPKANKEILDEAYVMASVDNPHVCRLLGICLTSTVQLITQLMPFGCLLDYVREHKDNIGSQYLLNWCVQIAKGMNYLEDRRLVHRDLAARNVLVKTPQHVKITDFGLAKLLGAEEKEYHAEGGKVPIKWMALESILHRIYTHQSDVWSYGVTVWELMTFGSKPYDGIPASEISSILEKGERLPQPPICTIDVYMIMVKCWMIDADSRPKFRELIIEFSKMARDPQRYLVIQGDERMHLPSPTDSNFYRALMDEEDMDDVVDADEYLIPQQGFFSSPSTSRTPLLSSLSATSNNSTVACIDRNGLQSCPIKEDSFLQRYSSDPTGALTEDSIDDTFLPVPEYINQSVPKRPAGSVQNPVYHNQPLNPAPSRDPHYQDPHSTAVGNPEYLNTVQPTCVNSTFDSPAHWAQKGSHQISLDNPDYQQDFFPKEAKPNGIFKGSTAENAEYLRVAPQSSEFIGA
procedure summary: Luciferase-coupled chemiluminescence kinase assay
Format: biochemical
experimental setup: ATP at Km
recorded metric: pIC50
The scale used: pIC50 is minus the common logarithm of the concentration in molar units.

Per the records, this molecule ( COc1cc2c(Nc3ccc(Cl)c(Cl)c3F)ncnc2cc1OC[C@@H]1C[C@@H]2CN(C)C[C@@H]2C1 [XL-647] ) has pIC50 equal to 9.52

###

recorded metric: IC50

The measured IC50 that COc1cc2c(Nc3ccc(Cl)c(Cl)c3F)ncnc2cc1OC[C@@H]1C[C@@H]2CN(C)C[C@@H]2C1 showed for UniProt:P24941 is > 1000 nM

###

recorded metric: pIC50
The scale used: pIC50 is minus the common logarithm of the concentration in molar units.

The measured pIC50 that COc1cc2c(Nc3ccc(Cl)c(Cl)c3F)ncnc2cc1OC[C@@H]1C[C@@H]2CN(C)C[C@@H]2C1 showed for Lyn (Homo sapiens, UniProt P07948) is 8.70

###

procedure summary: in vivo
experimental setup: female, monkey, po, 100 mg/kg
recorded metric: AUC(0-t) (ng·h/mL)
Quick note: give the figure in ng·h/mL, leave out the unit.

Per the records, this compound ( COc1cc2c(Nc3ccc(Cl)c(Cl)c3F)ncnc2cc1OC[C@@H]1C[C@@H]2CN(C)C[C@@H]2C1 ) has AUC(0-t) equal to 28000

###

system name: UniProt:P17252
procedure summary: In vitro kinase inhibition screen
Type: biochemical
pIC50: −log10 of the molar value.
recorded metric: pIC50

Per the records, this compound ( COc1cc2c(Nc3ccc(Cl)c(Cl)c3F)ncnc2cc1OC[C@@H]1C[C@@H]2CN(C)C[C@@H]2C1 ) has pIC50 equal to < 5.00

###

system name: UniProtKB P51812
Sequence (P51812 whole entry, species assumed): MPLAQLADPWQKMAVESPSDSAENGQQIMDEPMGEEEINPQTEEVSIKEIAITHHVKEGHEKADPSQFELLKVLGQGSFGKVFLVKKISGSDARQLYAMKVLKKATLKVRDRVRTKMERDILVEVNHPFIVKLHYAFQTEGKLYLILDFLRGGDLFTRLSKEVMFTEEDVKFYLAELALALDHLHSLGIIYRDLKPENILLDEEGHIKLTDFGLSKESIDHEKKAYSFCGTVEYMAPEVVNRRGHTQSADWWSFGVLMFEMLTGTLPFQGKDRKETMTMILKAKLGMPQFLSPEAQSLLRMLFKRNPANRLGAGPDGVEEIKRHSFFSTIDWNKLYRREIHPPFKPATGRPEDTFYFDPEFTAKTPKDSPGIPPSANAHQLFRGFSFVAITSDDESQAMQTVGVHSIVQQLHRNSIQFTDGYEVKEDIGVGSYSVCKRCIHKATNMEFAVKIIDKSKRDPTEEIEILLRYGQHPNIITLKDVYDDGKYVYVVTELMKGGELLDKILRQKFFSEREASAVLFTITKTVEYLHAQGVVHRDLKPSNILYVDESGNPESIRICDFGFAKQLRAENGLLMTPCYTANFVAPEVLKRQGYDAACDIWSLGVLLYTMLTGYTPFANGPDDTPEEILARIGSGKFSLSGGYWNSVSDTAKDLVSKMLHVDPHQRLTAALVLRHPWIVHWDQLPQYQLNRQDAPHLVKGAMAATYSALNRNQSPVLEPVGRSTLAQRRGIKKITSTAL
pIC50: −log10 of the molar value.
recorded metric: pIC50

Per the records, this compound ( COc1cc2c(Nc3ccc(Cl)c(Cl)c3F)ncnc2cc1OC[C@@H]1C[C@@H]2CN(C)C[C@@H]2C1 ) has pIC50 equal to < 6.00

###

system name: EphB4 (Homo sapiens, UniProt P54760)
Construct: expressed in transfected cells; host or cells: Hep3B
Sequence (P54760 16-987): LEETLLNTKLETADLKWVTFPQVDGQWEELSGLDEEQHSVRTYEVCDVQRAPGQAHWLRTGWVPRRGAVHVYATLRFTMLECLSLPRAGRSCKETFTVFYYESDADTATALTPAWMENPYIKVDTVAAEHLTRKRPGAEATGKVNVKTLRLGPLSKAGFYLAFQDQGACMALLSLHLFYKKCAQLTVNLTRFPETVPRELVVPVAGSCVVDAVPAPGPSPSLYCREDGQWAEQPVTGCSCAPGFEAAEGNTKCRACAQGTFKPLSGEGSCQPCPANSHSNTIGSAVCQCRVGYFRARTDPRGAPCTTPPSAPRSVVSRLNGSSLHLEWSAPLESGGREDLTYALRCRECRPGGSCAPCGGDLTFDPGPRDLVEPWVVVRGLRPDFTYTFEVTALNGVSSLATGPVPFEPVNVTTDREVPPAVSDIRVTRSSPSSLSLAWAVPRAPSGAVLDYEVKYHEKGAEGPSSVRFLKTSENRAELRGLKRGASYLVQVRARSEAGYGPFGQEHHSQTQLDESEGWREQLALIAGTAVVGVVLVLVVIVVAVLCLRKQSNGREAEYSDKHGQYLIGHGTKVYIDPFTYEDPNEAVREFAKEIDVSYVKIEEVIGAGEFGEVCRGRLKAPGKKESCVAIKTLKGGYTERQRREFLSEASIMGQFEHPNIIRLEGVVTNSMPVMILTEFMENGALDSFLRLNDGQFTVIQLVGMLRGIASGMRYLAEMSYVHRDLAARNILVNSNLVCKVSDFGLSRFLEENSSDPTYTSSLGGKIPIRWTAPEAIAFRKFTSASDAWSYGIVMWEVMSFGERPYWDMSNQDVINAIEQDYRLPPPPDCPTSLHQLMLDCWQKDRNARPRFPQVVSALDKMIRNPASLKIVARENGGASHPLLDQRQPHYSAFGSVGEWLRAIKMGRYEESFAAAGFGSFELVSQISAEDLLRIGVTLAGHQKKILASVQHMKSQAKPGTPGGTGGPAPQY
procedure summary: EphB4 autophosphorylation ELISA, EphB4/Hep3B cells
Type: cell-based
experimental setup: read-out: Cellular IC50, autophosphorylation
recorded metric: pIC50
The scale used: pIC50 is minus the common logarithm of the concentration in molar units.

Per the records, this compound ( COc1cc2c(Nc3ccc(Cl)c(Cl)c3F)ncnc2cc1OC[C@@H]1C[C@@H]2CN(C)C[C@@H]2C1 [XL-647] ) has pIC50 equal to 8.52

###

recorded metric: pKi
The scale used: pKi is minus the common logarithm of the concentration in molar units.

The measured pKi that COc1cc2c(Nc3ccc(Cl)c(Cl)c3F)ncnc2cc1OC[C@@H]1C[C@@H]2CN(C)C[C@@H]2C1 showed for EGFR (Homo sapiens) is 10.30

###

system name: p70S6K (Homo sapiens)
procedure summary: In vitro kinase inhibition screen
Assay type: biochemical
experimental setup: list in excess of 10 μM
Experimental: Further screening was performed using the biochemical assay methods of Example 2. Additional description of the components and concentrations are summarized in Table 8, Table 9, and Table 10, below.
pIC50: −log10 of the molar value.
recorded metric: pIC50

Per the records, this molecule ( COc1cc2c(Nc3ccc(Cl)c(Cl)c3F)ncnc2cc1OC[C@@H]1C[C@@H]2CN(C)C[C@@H]2C1 ) has pIC50 equal to < 5.00

###

procedure summary: in vivo
experimental setup: female, monkey, po, 150 mg/kg
recorded metric: half-life

Per the records, this molecule ( COc1cc2c(Nc3ccc(Cl)c(Cl)c3F)ncnc2cc1OC[C@@H]1C[C@@H]2CN(C)C[C@@H]2C1 ) has half-life equal to 20.4 h

###

system name: ErbB2 (Homo sapiens)
Sequence (P04626 679-1255): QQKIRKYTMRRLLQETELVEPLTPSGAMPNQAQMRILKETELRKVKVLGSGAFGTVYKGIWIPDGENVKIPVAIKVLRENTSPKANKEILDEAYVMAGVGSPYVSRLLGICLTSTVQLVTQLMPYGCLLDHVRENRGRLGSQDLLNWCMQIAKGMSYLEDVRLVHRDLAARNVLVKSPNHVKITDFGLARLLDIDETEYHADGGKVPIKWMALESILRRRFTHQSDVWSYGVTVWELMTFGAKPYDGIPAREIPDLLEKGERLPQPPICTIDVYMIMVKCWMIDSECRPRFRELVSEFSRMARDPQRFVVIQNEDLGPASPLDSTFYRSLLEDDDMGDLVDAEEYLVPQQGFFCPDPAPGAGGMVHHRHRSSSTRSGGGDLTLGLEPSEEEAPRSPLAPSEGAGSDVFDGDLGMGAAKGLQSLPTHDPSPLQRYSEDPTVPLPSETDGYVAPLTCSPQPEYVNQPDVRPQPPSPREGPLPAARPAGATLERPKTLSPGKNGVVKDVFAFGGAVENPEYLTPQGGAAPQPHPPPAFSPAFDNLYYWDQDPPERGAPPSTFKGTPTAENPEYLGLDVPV
procedure summary: AlphaScreen tyrosine kinase assay
Type: biochemical
Set-up: residues Q679-V1255 of human ErbB2, Proqinase; purchased Proqinase
experimental setup: ATP at Km
recorded metric: pIC50
The scale used: pIC50 is minus the common logarithm of the concentration in molar units.

Per the records, this compound ( COc1cc2c(Nc3ccc(Cl)c(Cl)c3F)ncnc2cc1OC[C@@H]1C[C@@H]2CN(C)C[C@@H]2C1 [XL-647] ) has pIC50 equal to 7.80

###

system name: MAP4K3 (Homo sapiens, UniProt Q8IVH8)
Construct: Kinase domain,; His6 (N)
Sequence (Q8IVH8 16-273 limits assumed, species assumed): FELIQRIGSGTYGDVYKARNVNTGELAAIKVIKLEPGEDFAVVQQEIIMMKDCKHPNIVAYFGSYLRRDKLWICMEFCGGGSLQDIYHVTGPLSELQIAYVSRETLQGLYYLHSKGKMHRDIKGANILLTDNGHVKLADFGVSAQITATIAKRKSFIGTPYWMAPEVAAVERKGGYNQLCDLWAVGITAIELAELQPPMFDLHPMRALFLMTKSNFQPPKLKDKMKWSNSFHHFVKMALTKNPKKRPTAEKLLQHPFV
procedure summary: Chemiluminescent kinase assay
Format: biochemical
pIC50: −log10 of the molar value.
recorded metric: pIC50

Per the records, this molecule ( COc1cc2c(Nc3ccc(Cl)c(Cl)c3F)ncnc2cc1OC[C@@H]1C[C@@H]2CN(C)C[C@@H]2C1 [XL-647] ) has pIC50 equal to < 6.00

###

system name: Dopamine Transporter (Homo sapiens)
Sequence (Q01959 whole entry): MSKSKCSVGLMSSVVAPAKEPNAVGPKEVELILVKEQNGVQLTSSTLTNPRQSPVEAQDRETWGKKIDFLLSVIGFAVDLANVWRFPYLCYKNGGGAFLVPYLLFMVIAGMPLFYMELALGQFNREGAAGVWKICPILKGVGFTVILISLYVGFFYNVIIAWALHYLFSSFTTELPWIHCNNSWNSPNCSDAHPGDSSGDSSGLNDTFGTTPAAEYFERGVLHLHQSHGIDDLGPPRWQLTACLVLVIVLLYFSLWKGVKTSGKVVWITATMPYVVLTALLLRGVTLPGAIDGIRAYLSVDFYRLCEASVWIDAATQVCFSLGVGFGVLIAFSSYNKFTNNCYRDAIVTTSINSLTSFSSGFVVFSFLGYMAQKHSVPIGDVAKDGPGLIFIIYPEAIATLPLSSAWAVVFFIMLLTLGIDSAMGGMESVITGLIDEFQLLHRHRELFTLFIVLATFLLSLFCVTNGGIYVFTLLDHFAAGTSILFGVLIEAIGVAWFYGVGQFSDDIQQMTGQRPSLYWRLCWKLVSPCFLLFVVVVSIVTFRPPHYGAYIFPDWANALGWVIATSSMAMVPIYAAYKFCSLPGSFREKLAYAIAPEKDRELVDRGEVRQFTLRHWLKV
recorded metric: pIC50
The scale used: pIC50 is minus the common logarithm of the concentration in molar units.

Per the records, this molecule ( COc1cc2c(Nc3ccc(Cl)c(Cl)c3F)ncnc2cc1OC[C@@H]1C[C@@H]2CN(C)C[C@@H]2C1 [XL-647] ) has pIC50 equal to 5.61
